# tested_on: Sodium-dependent noradrenaline transporter (Homo sapiens, UniProt P23975)
# Sequence (P23975 whole entry): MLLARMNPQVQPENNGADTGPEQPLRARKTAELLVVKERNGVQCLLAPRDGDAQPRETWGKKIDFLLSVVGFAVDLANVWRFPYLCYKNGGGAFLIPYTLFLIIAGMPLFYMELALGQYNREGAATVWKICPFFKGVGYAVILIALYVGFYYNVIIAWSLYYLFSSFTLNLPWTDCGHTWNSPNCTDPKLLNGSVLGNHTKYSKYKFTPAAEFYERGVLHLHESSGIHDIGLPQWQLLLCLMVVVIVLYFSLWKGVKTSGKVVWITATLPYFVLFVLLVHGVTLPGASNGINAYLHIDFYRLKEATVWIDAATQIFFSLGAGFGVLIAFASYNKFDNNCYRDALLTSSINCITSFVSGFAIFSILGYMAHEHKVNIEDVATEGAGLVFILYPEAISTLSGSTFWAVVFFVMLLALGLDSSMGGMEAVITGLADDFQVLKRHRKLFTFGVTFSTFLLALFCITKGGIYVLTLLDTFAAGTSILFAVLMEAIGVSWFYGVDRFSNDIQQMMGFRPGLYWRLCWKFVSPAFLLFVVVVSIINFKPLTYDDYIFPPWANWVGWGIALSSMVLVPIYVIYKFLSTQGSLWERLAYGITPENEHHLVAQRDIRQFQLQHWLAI
# measurement_description: Inhibition of [3H]NA uptake at human NA transporter expressed in HEK293 cells
Measured pIC50 values are reported for all entries that follow.
# log scale: pIC50 equals minus log10 of the concentration in mol/L

Solved cases (3 shown):
- smiles_record: "CN(C)Cc1ccccc1Oc1ccc(Cl)cc1"
  pIC50: 6.59
- smiles_record: "COc1cc(Cl)ccc1Oc1ccccc1CN(C)C"
  pIC50: 7.85
- smiles_record: "CNCc1cc(C(N)=O)ccc1Oc1ccc(Cl)cc1C"
  pIC50: 7.34

Entry CN(C)Cc1ccccc1Oc1ccc(F)cc1Cl , pIC50 reported as 7.34

Entry CNCc1cc(C(=O)NC)ccc1Oc1ccc(Cl)cc1C , pIC50 reported as 7.59

Entry CNCc1cc(C(=O)N(C)C)ccc1Oc1ccc(Cl)cc1Cl , pIC50 reported as 7.48

Entry CNCc1ccccc1Oc1ccc(Cl)cc1OC , pIC50 reported as 7.11

====

# measurement_description: Metabolic stability assessed as intrinsic clearance in human liver microsomes
# Format: ADME, Microsome
Measured log10(microsomal CLint) values are reported for all entries that follow.
Plainly stated, the numbers are log10 of microsomal CLint given in µL/min/mg.

- smiles_record: "CNCc1cc(C(=O)N(C)C)ccc1Oc1ccc(Cl)cc1OC"
  log10(microsomal CLint): 1.18
- smiles_record: "CNCc1cc(C(=O)N(C)C)ccc1Oc1ccc(Cl)cc1Cl"
  log10(microsomal CLint): 1.11
- smiles_record: "CNCc1cc(C(N)=O)ccc1Oc1ccc(Cl)cc1OC"
  log10(microsomal CLint): 0.90
- smiles_record: "CN(C)Cc1ccccc1Oc1ccccc1Cl"
  log10(microsomal CLint): 2.27

Entry CNCc1ccccc1Oc1ccc(Cl)cc1OC , log10(microsomal CLint) reported as 0.95

Entry CNCc1cc(NS(C)(=O)=O)ccc1Oc1ccc(Cl)cc1C , log10(microsomal CLint) reported as 0.90

Entry CNCc1cc(C(=O)NC)ccc1Oc1ccc(Cl)cc1Cl , log10(microsomal CLint) reported as 0.95

Entry CNCc1cc(C(=O)NC)ccc1Oc1ccc(Cl)cc1C , log10(microsomal CLint) reported as 0.95

Entry CN(C)Cc1ccccc1Oc1ccc(Cl)cc1Cl , log10(microsomal CLint) reported as 2.35

Entry CNCc1cc(N2CCCS2(=O)=O)ccc1Oc1ccc(Cl)cc1C , log10(microsomal CLint) reported as 1.04

Entry CNCc1ccccc1Oc1ccc(Cl)cc1C , log10(microsomal CLint) reported as 1.30

Entry CNCc1ccccc1Oc1ccc(Cl)cc1F , log10(microsomal CLint) reported as 1.34

Entry CNCc1cc(C(N)=O)ccc1Oc1ccc(Cl)cc1C , log10(microsomal CLint) reported as 0.90

Entry CNCc1cc(C(=O)NC)ccc1Oc1ccc(Cl)cc1OC , log10(microsomal CLint) reported as 0.90

Entry COc1cc(Cl)ccc1Oc1ccccc1CN(C)C , log10(microsomal CLint) reported as 1.65

Entry CNCc1cc(N2CCCS2(=O)=O)ccc1Oc1ccc(Cl)cc1Cl , log10(microsomal CLint) reported as 1.08

Entry CNCc1cc(C(N)=O)ccc1Oc1ccc(Cl)cc1Cl , log10(microsomal CLint) reported as 0.90

Entry CNCc1cc(C(=O)N(C)C)ccc1Oc1ccc(Cl)cc1C , log10(microsomal CLint) reported as 0.95

Entry CN(C)Cc1ccccc1Oc1ccc(F)cc1Cl , log10(microsomal CLint) reported as 2.34

====

# tested_on: UniProtKB Q12809
# Sequence (Q12809 whole entry): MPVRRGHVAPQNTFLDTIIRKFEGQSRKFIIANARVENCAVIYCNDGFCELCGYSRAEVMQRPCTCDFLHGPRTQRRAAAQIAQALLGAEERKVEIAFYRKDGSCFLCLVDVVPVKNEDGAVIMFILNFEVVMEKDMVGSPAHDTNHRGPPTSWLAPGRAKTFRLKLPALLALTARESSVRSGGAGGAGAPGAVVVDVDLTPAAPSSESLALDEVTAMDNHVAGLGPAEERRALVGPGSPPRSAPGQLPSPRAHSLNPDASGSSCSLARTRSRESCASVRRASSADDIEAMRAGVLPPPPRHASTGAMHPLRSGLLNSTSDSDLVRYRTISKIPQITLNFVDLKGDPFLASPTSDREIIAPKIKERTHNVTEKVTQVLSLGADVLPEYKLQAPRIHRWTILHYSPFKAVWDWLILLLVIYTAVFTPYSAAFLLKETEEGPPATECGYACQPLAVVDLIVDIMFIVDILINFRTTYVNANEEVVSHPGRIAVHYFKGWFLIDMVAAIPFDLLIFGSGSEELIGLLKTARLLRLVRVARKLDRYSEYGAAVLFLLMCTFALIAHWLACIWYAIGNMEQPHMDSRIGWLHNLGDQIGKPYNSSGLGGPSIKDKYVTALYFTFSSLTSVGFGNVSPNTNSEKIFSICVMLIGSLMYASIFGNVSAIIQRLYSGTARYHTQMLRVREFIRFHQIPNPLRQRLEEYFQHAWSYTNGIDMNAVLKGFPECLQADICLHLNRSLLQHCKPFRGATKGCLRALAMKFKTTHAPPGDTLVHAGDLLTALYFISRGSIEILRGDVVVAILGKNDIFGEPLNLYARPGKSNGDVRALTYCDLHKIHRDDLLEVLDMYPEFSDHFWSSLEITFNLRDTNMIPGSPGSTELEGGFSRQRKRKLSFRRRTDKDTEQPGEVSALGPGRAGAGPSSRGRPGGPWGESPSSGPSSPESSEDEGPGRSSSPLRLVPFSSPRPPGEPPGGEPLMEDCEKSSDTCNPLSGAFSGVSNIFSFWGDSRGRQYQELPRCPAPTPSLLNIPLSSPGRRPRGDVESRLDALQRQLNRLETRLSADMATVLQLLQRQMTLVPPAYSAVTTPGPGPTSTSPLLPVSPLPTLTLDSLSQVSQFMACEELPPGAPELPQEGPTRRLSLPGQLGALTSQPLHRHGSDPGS
Consider the cut-off 4 µM. If the recorded Ki is strictly smaller, the label is Satisfied; if not, the label is Not satisfied.

Observe how each entry below is paired with its result.
- smiles_record: "CNCc1cc(C(=O)N(C)C)ccc1Oc1ccc(Cl)cc1C"
  category_label: "Satisfied"
- smiles_record: "CNCc1cc(C(=O)NC)ccc1Oc1ccc(Cl)cc1OC"
  category_label: "Not satisfied"
- smiles_record: "CNCc1cc(C(N)=O)ccc1Oc1ccc(Cl)cc1OC"
  category_label: "Not satisfied"
- smiles_record: "COc1cc(Cl)ccc1Oc1ccccc1CN(C)C"
  category_label: "Not satisfied"
- smiles_record: "CNCc1cc(N2CCCS2(=O)=O)ccc1Oc1ccc(Cl)cc1C"
  category_label: "Satisfied"

(Q) For CNCc1cc(C#N)ccc1Oc1ccc(Cl)cc1Cl , is the recorded Ki below the cut-off of 4 µM?
(A) Satisfied

(Q) For CNCc1ccccc1Oc1ccc(Cl)cc1OC , is the recorded Ki below the cut-off of 4 µM?
(A) Not satisfied

(Q) For CNCc1cc(C(=O)NC)ccc1Oc1ccc(Cl)cc1Cl , is the recorded Ki below the cut-off of 4 µM?
(A) Satisfied

(Q) For CNCc1cc(NS(C)(=O)=O)ccc1Oc1ccc(Cl)cc1C , is the recorded Ki below the cut-off of 4 µM?
(A) Not satisfied

(Q) For CNCc1ccccc1Oc1ccc(Cl)cc1F , is the recorded Ki below the cut-off of 4 µM?
(A) Not satisfied

====

# tested_on: Sodium-dependent serotonin transporter (Homo sapiens)
# Sequence (P31645 whole entry): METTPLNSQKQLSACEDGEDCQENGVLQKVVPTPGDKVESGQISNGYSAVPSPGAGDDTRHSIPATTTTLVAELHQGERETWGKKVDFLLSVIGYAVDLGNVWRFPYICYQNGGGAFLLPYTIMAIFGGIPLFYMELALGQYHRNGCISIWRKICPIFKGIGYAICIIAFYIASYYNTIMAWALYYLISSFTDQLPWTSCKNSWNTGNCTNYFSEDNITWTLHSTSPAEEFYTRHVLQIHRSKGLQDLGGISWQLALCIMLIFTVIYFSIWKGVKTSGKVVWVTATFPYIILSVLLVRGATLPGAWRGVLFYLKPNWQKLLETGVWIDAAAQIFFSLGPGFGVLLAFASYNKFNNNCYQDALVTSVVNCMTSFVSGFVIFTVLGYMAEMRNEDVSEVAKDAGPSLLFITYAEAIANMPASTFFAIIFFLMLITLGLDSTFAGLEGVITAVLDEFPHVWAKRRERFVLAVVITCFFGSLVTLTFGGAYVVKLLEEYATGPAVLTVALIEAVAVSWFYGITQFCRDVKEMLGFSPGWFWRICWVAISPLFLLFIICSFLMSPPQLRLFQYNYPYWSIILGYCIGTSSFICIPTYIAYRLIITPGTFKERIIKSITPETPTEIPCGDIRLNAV
# measurement_description: Inhibition of [3H]5HT uptake at human 5HT transporter expressed in HEK293 cells
measured_endpoint: IC50 (nM)
Write down the numeric answer in nM and omit the unit.

Entry CNCc1cc(C(=O)NC)ccc1Oc1ccc(Cl)cc1Cl , IC50 reported as 13

Entry CNCc1ccccc1Oc1ccc(Cl)cc1F , IC50 reported as 73

Entry CNCc1cc(C(=O)N(C)C)ccc1Oc1ccc(Cl)cc1C , IC50 reported as 17

Entry CN(C)Cc1ccccc1Oc1ccccc1Cl , IC50 reported as 282

Entry CNCc1ccccc1Oc1ccc(Cl)cc1OC , IC50 reported as 13

Entry CN(C)Cc1ccccc1Oc1ccc(Cl)cc1Cl , IC50 reported as 4

====

# measurement_description: Membrane permeability by PAMPA assay
# Format: ADME
Measured Papp values are reported for all entries that follow.
Write down the numeric answer in ×10⁻⁶ cm/s and omit the unit.

- smiles_record: "CNCc1cc(C(=O)N(C)C)ccc1Oc1ccc(Cl)cc1C"
  Papp [×10⁻⁶ cm/s]: 19
- smiles_record: "CNCc1cc(C(=O)N(C)C)ccc1Oc1ccc(Cl)cc1OC"
  Papp [×10⁻⁶ cm/s]: 15
- smiles_record: "CNCc1cc(C(=O)N(C)C)ccc1Oc1ccc(Cl)cc1Cl"
  Papp [×10⁻⁶ cm/s]: 14
- smiles_record: "CNCc1cc(NS(C)(=O)=O)ccc1Oc1ccc(Cl)cc1C"
  Papp [×10⁻⁶ cm/s]: 2.2
- smiles_record: "CNCc1cc(C(N)=O)ccc1Oc1ccc(Cl)cc1OC"
  Papp [×10⁻⁶ cm/s]: 11

Entry CNCc1cc(C(=O)NC)ccc1Oc1ccc(Cl)cc1OC , Papp reported as 14

Entry CNCc1cc(N2CCCS2(=O)=O)ccc1Oc1ccc(Cl)cc1C , Papp reported as 2.7

Entry CNCc1cc(C(N)=O)ccc1Oc1ccc(Cl)cc1Cl , Papp reported as 10

====

# tested_on: Sodium-dependent noradrenaline transporter (Homo sapiens, UniProt P23975)
# measurement_description: Inhibition of [3H]NA uptake at human NA transporter expressed in HEK293 cells
# Type: cell-based
measured_endpoint: pIC50
# log scale: pIC50 equals minus log10 of the concentration in mol/L

Solved cases (5 shown):
- smiles_record: "CN(C)Cc1ccccc1Oc1ccccc1"
  pIC50: 7.15
- smiles_record: "CN(C)Cc1ccccc1Oc1cccc(Cl)c1"
  pIC50: 7.09
- smiles_record: "CN(C)Cc1ccccc1Oc1ccc(Cl)cc1F"
  pIC50: 7.68
- smiles_record: "CNCc1ccccc1Oc1ccc(Cl)cc1Cl"
  pIC50: 7.38
- smiles_record: "CNCc1ccccc1Oc1ccc(F)cc1Cl"
  pIC50: 6.52

Form field pIC50 for item CN(C)Cc1ccccc1Oc1ccc(Cl)cc1Cl on Sodium-dependent noradrenaline transporter (Homo sapiens, UniProt P23975): 7.96

Form field pIC50 for item CNCc1ccccc1Oc1ccc(Cl)cc1F on Sodium-dependent noradrenaline transporter (Homo sapiens, UniProt P23975): 6.37

Form field pIC50 for item CNCc1ccccc1Oc1ccc(Cl)cc1C on Sodium-dependent noradrenaline transporter (Homo sapiens, UniProt P23975): 7.66

Form field pIC50 for item CNCc1cc(N2CCCS2(=O)=O)ccc1Oc1ccc(Cl)cc1Cl on Sodium-dependent noradrenaline transporter (Homo sapiens, UniProt P23975): 7.77

Form field pIC50 for item CNCc1cc(C(=O)NC)ccc1Oc1ccc(Cl)cc1OC on Sodium-dependent noradrenaline transporter (Homo sapiens, UniProt P23975): 7.11

Form field pIC50 for item CNCc1cc(C(N)=O)ccc1Oc1ccc(Cl)cc1OC on Sodium-dependent noradrenaline transporter (Homo sapiens, UniProt P23975): 7.21

Form field pIC50 for item CNCc1cc(C(=O)N(C)C)ccc1Oc1ccc(Cl)cc1C on Sodium-dependent noradrenaline transporter (Homo sapiens, UniProt P23975): 7.77

Form field pIC50 for item CNCc1cc(C(N)=O)ccc1Oc1ccc(Cl)cc1Cl on Sodium-dependent noradrenaline transporter (Homo sapiens, UniProt P23975): 7.08

Source listed as ChEMBL document CHEMBL1141595.
